biological target: T1, recombinant human PCSK9 protein, His-tagged (Immunogen A, hPCSK9-His) (human, UniProt Q8NBP7 31-692, limits assumed, biotin-labelled in the ELISA and blocking assays (Biotin labeling kit)); experiment: ELISA, biotin-hPCSK9-His on streptavidin plate; antibody 0.67 nM
T1 construct: also called human PCSK9-His; recombinant hPCSK9-His; not shown: His tag
Measured Parameter: OD450 nm (OD450 nm)
Give the value, in units of OD450 nm, as a plain number.

Tell me the measured OD450 nm of 103C11E8, chimeric anti-PCSK9 mAb purified from hybridoma (antibody, V domains shown, From Harbour H2L2 mice: human variable regions, rat constant regions) VH: QVQLQESGPGLVKPSGTLSLTCAVSGGSISSSNWWSWVRQPPGKGLEWIGEIYHSGSTNYNPSLKSRVTISVDKSKNQFSLKLSSVTAADTAVYYCARGIAVAGTDVMDAWGQGASVTVSS VL: EIVLTQSPATLSLSPGERATLSCRASQSVSSYLVWYQQKSGQAPRLLIYGTSNRATGIPARFSGSGSGTDFTLTISSLEPEDFALYYCQQRGNWMYTFGQGTKLEIK , please.
2.41

Tell me the measured OD450 nm of 76A1B11, chimeric anti-PCSK9 mAb purified from hybridoma (antibody, V domains shown, From Harbour H2L2 mice: human variable regions, rat constant regions) VH: QVQLVESGGGVVQPGRSLRLSCAATGFTFSIYGMHWVRQAPGKGLEWVAVIWYDGSNKYYADSVKGRFIISRDNSKNTLYLQMNSLRVEDTAVYYCVSDYFGSGNSYYYYGMDVWGQGTTVTVSS VL: DIQMTQSPSSLSASVGDRVTITCRASQVISNYLAWYQQKPGKVPKLLIYTASTLQSGVPSRFSGSGSGADFTLTISSLQPEDVATYYCQKYNSAPYTFGQGTKLEIK , please.
2.66

The reported numbers originate from patent US20180355059A1.
